The reported numbers originate from PubChem BioAssay (NCI).

- System: OVCAR-3 ovarian
- TEST_NAME: NCI-60 one-dose screen, 48 h (100 = growth as untreated, 0 = no growth, -100 = all killed)
- TEST_SETTINGS: 10 µM unless noted
The panel holds about 83,000 compounds, 20% with a hit somewhere; the sample as a whole holds those more often. Calls of active or inactive are those of the source. Rule for the calls: active = growth percent below 10; inactive = the rest.
REPORTED_ENDPOINT: growth

CC1(C)N=C(N)N=C(N)N1c1ccc(OCCCCNC(=O)c2ccc(S(=O)(=O)F)cc2)c(Cl)c1
119% (inactive)

Entry O=C(CC1(O)C(=O)Nc2ccc(F)cc21)c1ccc(C(=O)NCC2CCC3(CC2)OOC2(CCCCC2)OO3)cc1 (centres undefined) has what growth?
-50.1% (active)

And the next one, `[Cl][Hg][n]1cnc2c(Cl)c(Cl)c(Cl)cc21` ?
94.5% (inactive)

Then what about the compound CC1CC=CCC12C(=O)NC(=S)NC2=O (centres undefined) ?
118% (inactive)

----------
- Tested on: CAKI-1 renal
- TEST_NAME: NCI-60 one-dose screen, 48 h
- TEST_SETTINGS: 10 µM unless noted
Compounds without any hit were thinned out: in the full panel of roughly 83,000, 20% have a hit. The source made the active and inactive calls. How the source made its calls: active means growth percent below 10; inactive means the rest.
Can you answer with just one of these options? active, inactive

Consider the following illustrative entries.
CC1(C)CC(=O)CC(C)(C)N1N=O
inactive
CCCCCCCC(=O)OCC/C=C/C1OC1C1OC(=O)/C=C\C=C\c2nc(oc2C)/C=C(/C)CCC2OC2C1OC(=O)NC(C)=O (stereo unspecified)
active
CCOc1cc(/C=N\Nc2nnc(C)n2N)c(C)cc1N(CCCl)CCCl
inactive

Can you look up the reported call for `CCC[CH2][Sn]([CH2]CCC)([CH2]CCC)[O]C(=O)c1ccc(Cl)cc1Cl` for me?
active

Next compound: `O=C(O)CNC(=O)c1ccccc1`
inactive

Please give the result for `O=C(CCCN1CCC2(CC1)C(=O)NCN2c1ccc(F)cc1)c1ccc(F)cc1` too.
inactive

Now the compound `C[CH2][Pb]([CH2]C)([CH2]C)[O]C(=O)COc1ccccc1`
active

Then `O=C(O)c1[nH]c(=O)[nH]c(=O)c1F` ?
inactive

Also check `COc1cc[c]([Hg][Cl])cc1`
inactive

----------
Entries annotated with measured growth
- Test system: UO-31 renal
- TEST_NAME: NCI-60 one-dose screen, 48 h (100 = growth as untreated, 0 = no growth, -100 = all killed)
- TEST_SETTINGS: 10 µM unless noted
About 83,000 compounds went through this panel and 20% of them were active in at least one assay; those are over-represented in the sample as a whole. Active and inactive are the calls of the source. How the source made its calls: active means growth percent below 10; inactive means the rest.

Cc1cc(N(CCCl)CCCl)ccc1C=Nc1ccc2ccccc2c1
50.8% (inactive)
CCCCN(CCCC)CC(O)c1ccccc1 (stereo not drawn)
100% (inactive)

# ---- query compound ----
// returns reported growth for input `Cc1ccc(C[As+](c2ccccc2)(c2ccccc2)c2ccccc2)cc1`
69% (inactive)

----------
- System: HL-60(TB) leukemia
- TEST_NAME: NCI-60 one-dose screen, 48 h
- TEST_SETTINGS: 10 µM unless noted
This is part of a sample that, as a whole, favours compounds with a hit. Of some 83,000 tested, about 20% had one in any assay. Calls of active or inactive are those of the source. How the source made its calls: active means growth percent below 10; inactive means the rest.
// classify into T (active), F (inactive)

Some solved cases for reference:
CCCCCCCCCCC(=O)CCCCCCCCCC
F
N#Cc1nc(-c2ccc(F)cc2)oc1S(=O)(=O)N1CCCCC1
F
CCn1c(SC/C(=N/O)c2ccccc2)nnc1-c1ccccc1
F
N#Cc1nc(-c2cccc(Br)c2)cc(-c2ccc(Nc3nc(N4CCCCC4)nc(N4CCCCC4)n3)cc2)c1N
T
Cc1cc(C)c(-c2cc(O)c(-c3c(C)cc(C)cc3C)cc2O)c(C)c1
T

For this compound, state the assay outcome: `N#Cc1c(N)nc2c(nnn2-c2cccc(Br)c2)c1N`
F

Likewise for `Cc1[nH]c(-c2nc3ccccc3[nH]2)c(C)c1C(=O)N1CCOCC1` ?
F

// same read-out, input: `Clc1cccc(Cl)c1/C=C/c1cc(/C=C/c2c(Cl)cccc2Cl)[nH]n1`
F

Another: `C#CCN(CCCOc1ccc(Cl)cc1Cl)CCCSC(=O)CCCCCN1/C(=C\C=C2/CCCC(/C=C/C3=[N+](CCCCCC(=O)[O-])c4ccccc4C3(C)C)=C2Cl)C(C)(C)c2ccccc21`
T

Follow-up item: `O=S(=O)(O)C(C(I)I)S(=O)(=O)O`
F
